Ref: patent US11214803B2

Consider the following substances and their measured YAP1 (% UTC) readings.
- System: Yap1 mRNA
- procedure_text: Antisense inhibition of human Yap1 in A-431 cells by cEt gapmers, single dose (Example 3, RTS36584)
- Assay type: cell-based
- test_conditions: Table 10; A-431 cells, 5,000 cells per well, free uptake, 2,000 nM oligonucleotide, approx. 48 hours; primer probe set RTS36584; Yap1 mRNA normalized to RIBOGREEN, percent of untreated control
Strand notation (5' to 3'): a small letter for the sugar, then the base; units joined by * are phosphorothioate-linked, units joined directly phosphodiester-linked; [ ] holds rarer units or linkages, { } end groups; capitals alone tell only the bases. k = constrained ethyl (cEt); [5mC] = 5-methylcytosine; d = 2'-deoxy (DNA)
Express the result in % UTC but write the number alone.

1) 958657 (k[5mC]*kA*kG*dT*dA*dT*dA*dA*dT*dA*dT*d[5mC]*d[5mC]*kT*kA*kA; antisense) [Compound 958657]    37
2) 958512 (k[5mC]*kA*kT*dT*d[5mC]*d[5mC]*dA*d[5mC]*dT*dA*d[5mC]*d[5mC]*dA*k[5mC]*kA*k[5mC]; antisense) [Compound 958512]    14
3) 958447 (antisense kG*kT*kT*dG*dA*dG*dG*d[5mC]*dG*dG*d[5mC]*dG*dG*k[5mC]*kT*kG) [Compound 958447]    48
4) 958492 (kT*kG*kT*d[5mC]*dA*dG*dA*d[5mC]*d[5mC]*dA*dG*dT*dA*kA*kA*kT; antisense) [Compound 958492]    12
5) 958517 (kT*k[5mC]*kT*dA*dG*dA*dA*d[5mC]*dA*d[5mC]*dT*dA*dA*kA*k[5mC]*kT; antisense) [Compound 958517]    88

Let us examine a further case.
Q: Consider the substance 958767 (antisense kA*k[5mC]*kG*dA*dA*dT*dA*dA*dG*dG*d[5mC]*dA*dT*kT*kA*kG) [Compound 958767] . State its measured YAP1 (% UTC).
Ans: 6

---

- Test system: Yap1 mRNA
- procedure_text: Antisense inhibition of human Yap1 in A-431 cells by cEt gapmers, single dose (Example 4, RTS4814)
- Assay type: cell-based
- test_conditions: Table 17; A-431 cells, 5,000 cells per well, free uptake, 2,000 nM, approximately 48 hours; RTS4814; normalized to RIBOGREEN; Yap1 mRNA relative to untreated control cells
Strand notation (5' to 3'): a small letter for the sugar, then the base; units joined by * are phosphorothioate-linked, units joined directly phosphodiester-linked; [ ] holds rarer units or linkages, { } end groups; capitals alone tell only the bases. k = constrained ethyl (cEt); [5mC] = 5-methylcytosine; d = 2'-deoxy (DNA)
Consider the following substances and their measured YAP1 (% UTC) readings.

1. 1076515 (antisense k[5mC]*kT*kG*d[5mC]*dA*dA*dG*dA*dA*dT*dA*d[5mC]*dT*kT*kT*kA) [Compound 1076515]    30 % UTC
2. 1076227 (kA*k[5mC]*kT*dT*dA*dT*dA*dA*dG*dG*d[5mC]*d[5mC]*dA*kG*k[5mC]*kA; antisense) [Compound 1076227]    16 % UTC
3. 1075811 (kA*kT*kT*dG*dT*dA*dG*d[5mC]*dA*dA*dT*dA*dG*kA*kG*kT; antisense) [Compound 1075811]    10 % UTC
4. 1076291 (kG*kA*kT*dT*dA*dA*dT*dG*dG*dT*dG*dG*d[5mC]*kA*kT*kT; antisense) [Compound 1076291]    4 % UTC

Q: Consider the substance 1074211 (antisense k[5mC]*kT*kT*d[5mC]*d[5mC]*dG*dG*dA*dG*d[5mC]*d[5mC]*dT*d[5mC]*kA*kT*kG) [Compound 1074211] . State its measured YAP1 (% UTC).
Ans: 67 % UTC

Q: Consider the substance 1076451 (k[5mC]*k[5mC]*kT*dT*dA*dA*dG*dA*dA*d[5mC]*dA*dT*dG*kA*kG*kG; antisense) [Compound 1076451] . State its measured YAP1 (% UTC).
Ans: 77 % UTC

Q: Consider the substance 1074179 (antisense k[5mC]*kG*kG*dG*dA*dT*d[5mC]*d[5mC]*dA*dT*dG*dG*d[5mC]*kT*kT*k[5mC]) [Compound 1074179] . State its measured YAP1 (% UTC).
Ans: 49 % UTC

Q: Consider the substance 1075939 (k[5mC]*kT*kT*dG*dA*dA*dT*dA*dT*dA*dT*dG*dG*kG*kT*kT; antisense) [Compound 1075939] . State its measured YAP1 (% UTC).
Ans: 6 % UTC
